Reported values of growth for individual entries
Tested on: TK-10 renal
ASSAY METHOD TEXT: NCI-60 one-dose screen, 48 h (100 = growth as untreated, 0 = no growth, -100 = all killed)
SETUP CONDITIONS: 10 µM unless noted
About 83,000 compounds went through this panel and 20% of them were active in at least one assay; those are over-represented in the sample as a whole.
Number in %, nothing else.

The following compounds have reported results that may help.
>  <COMPOUND>
C=CCOC(=O)C1=C(C)NC(=O)NC1c1c(Cl)n(C)c2ccccc12 (centres undefined)

>  <growth, %>
102

$$$$
>  <COMPOUND>
O=C(/C=C/c1ccc(Br)cc1)c1ccc(-n2cc(CN3CCN(c4cc5c(cc4F)c(=O)c(C(=O)O)cn5C4CC4)CC3)nn2)cc1

>  <growth, %>
91.4

$$$$
>  <COMPOUND>
CC1(C)CCC(S(=O)(=O)c2ccc3c(c2)/C(=N\O)c2cc(S(=O)(=O)N4CCN(c5ccc(F)cc5O)CC4)ccc2-3)CC1

>  <growth, %>
-82

$$$$

Next:
Exercise: For COc1cccc(NC(=O)c2cccc(C3CCc4c(cc(OC)c(OC)c4OC)O3)c2)c1 (centres undefined) , what is its reported growth?
Key: 74.5

----------
Tested on: MDA-MB-231 breast
ASSAY METHOD TEXT: NCI-60 one-dose screen, 48 h
SETUP CONDITIONS: 10 µM unless noted
Compounds without any hit were thinned out: in the full panel of roughly 83,000, 20% have a hit. Calls of active or inactive are those of the source. The calls were made as follows: active = growth percent below 10; inactive = the rest.
Choose one outcome from this list and give only that: 1 (active), -1 (inactive)

>  <MOLECULE>
C=C1C(=O)O[C@H]2[C@H]1CC/C(CNC(=O)c1cc3ccccc3[nH]1)=C\CC[C@@]1(C)O[C@@H]21

>  <DISCRETE LABEL>
1

$$$$
>  <MOLECULE>
CC/C=C1/C(=O)C=C[C@@H]1C/C=C\CCCC(=O)OC

>  <DISCRETE LABEL>
-1

$$$$
>  <MOLECULE>
C#Cc1cccc(Nc2nc3ccc([N+](=O)[O-])cc3nc2Nc2cccc(C#C)c2)c1

>  <DISCRETE LABEL>
1

$$$$
>  <MOLECULE>
COc1ccc(C(O)c2cc3c(N)c(C(=O)Nc4cccc(Cl)c4)sc3nc2C)cc1 (stereo unspecified)

>  <DISCRETE LABEL>
-1

$$$$
>  <MOLECULE>
O=c1oc2c(cnc3ccccc32)cc1-c1cccs1

>  <DISCRETE LABEL>
-1

$$$$
>  <MOLECULE>
CCN(CC)c1ccc(N2C(=O)/C(=C/c3cccs3)SC2=S)cc1

>  <DISCRETE LABEL>
-1

$$$$

Exercise: Answer briefly: the call reported for CC(/C=C1\SC(=S)N(CC(=O)NC(Cc2c[nH]c3ccccc23)C(=O)O)C1=O)=C\c1ccccc1 (stereo unspecified) in this assay.
Key: -1

Exercise: And the next one, COc1ccc(C(c2cc(OC)c(OC)c(OC)c2)N2CCN(Cc3ccccc3)CC2)cc1 (stereo unspecified) ?
Key: -1

Exercise: And the next one, `Clc1nn2c(Cn3cnc4c(NCc5ccccc5)ncnc43)nnc2c2ccccc12` ?
Key: -1

Exercise: And the next one, `CC1(C)CC2=C3C=C[C@@H]4[C@@]5(C)CC[C@H](O)C(C)(C)[C@@H]5CC[C@@]4(C)[C@]3(C)CC[C@@]2(C(=O)O)CC1=O` ?
Key: -1

Exercise: And the next one, `COP(=O)(OC)c1nnn(-c2cccc([N+](=O)[O-])c2)c1C` ?
Key: -1

Exercise: And the next one, `Cc1ccc(C(=O)c2ccc(CC(=O)N/N=C/c3ccc(O)cc3O)n2C)cc1` ?
Key: -1

----------
Reported values of growth for individual entries
System: U251 CNS
ASSAY METHOD TEXT: NCI-60 one-dose screen, 48 h (100 = growth as untreated, 0 = no growth, -100 = all killed)
SETUP CONDITIONS: 10 µM unless noted
Compounds without any hit were thinned out: in the full panel of roughly 83,000, 20% have a hit.
Number in %, nothing else.

>  <COMPOUND>
OC(c1ccccc1)(c1ccccc1)c1ccccc1-c1ccccc1

>  <EXPERIMENTAL READOUT>
growth

>  <RESULT VALUE>
92.8

$$$$
>  <COMPOUND>
C/C(=N\O)C(=O)NCCCCCC(=O)Nc1ccccc1

>  <EXPERIMENTAL READOUT>
growth

>  <RESULT VALUE>
98.6

$$$$
>  <COMPOUND>
C=C(c1ccc(C(=O)O)cn1)c1cc2c(cc1C)C(C)(C)CCC2(C)C

>  <EXPERIMENTAL READOUT>
growth

>  <RESULT VALUE>
75.6

$$$$
>  <COMPOUND>
O=C(Nc1nc(C(=O)N2CCN(C(c3ccccc3)c3ccccc3)CC2)cs1)c1ccc(NC2CCCCC2)c([N+](=O)[O-])c1

>  <EXPERIMENTAL READOUT>
growth

>  <RESULT VALUE>
83.5

$$$$
>  <COMPOUND>
COCC[C@H]1CCC/C=C/[C@@H]2C[C@H](O)C[C@H]2[C@H](O)/C=C/C(=O)O1

>  <EXPERIMENTAL READOUT>
growth

>  <RESULT VALUE>
15.5

$$$$

Exercise: For C=CC1(C)C(O[Si](C)(C)C(C)(C)C)CC2C3OC(=O)NC31c1cccc3c1[C@H](C(=O)N3C)C2(C)C (some centres undefined) , what is its reported growth?
Key: 67

Exercise: And the next one, `N#Cc1c(-c2ccccc2)nc2c(c(-c3ccccc3)nn2-c2ccccc2)c1-c1ccc(N2CCOCC2)cc1` ?
Key: 65.9

Exercise: And the next one, `O=C(NCc1ccccc1O)c1cccc2ccccc12` ?
Key: 81.6

Exercise: And the next one, Cc1ccc(S(=O)(=O)n2cc(C3C(Cl)C(=O)N3c3ccc(N4CCOCC4=O)cc3)c3ccccc32)cc1 (centres undefined) ?
Key: 48.7

----------
Tested on: COLO 205 colon
ASSAY METHOD TEXT: NCI-60 one-dose screen, 48 h (100 = growth as untreated, 0 = no growth, -100 = all killed)
SETUP CONDITIONS: 10 µM unless noted
Compounds without any hit were thinned out: in the full panel of roughly 83,000, 20% have a hit. Calls of active or inactive are those of the source. The calls were made as follows: active = growth percent below 10; inactive = the rest.
Reported values of growth for individual entries

The following compounds have reported results that may help.
>  <COMPOUND>
O=C(CN1C(=O)NC2NC(=O)NC21)N/N=C/c1ccc(Cl)cc1Cl (centres undefined)

>  <growth>
125% (inactive)

$$$$
>  <COMPOUND>
COc1cc(/C=C/c2cc(/C=C/c3ccc(O)c(OC)c3)n(C(=O)Nc3ccc(F)cc3)n2)ccc1O

>  <growth>
8.73% (active)

$$$$

Exercise: For `O=C1NC(=Nc2ccc(O)cc2)S/C1=C\c1cccs1` , what is its reported growth?
Key: 105% (inactive)

Exercise: And the next one, `COc1ccc2cc(Cn3cc[n+](Cc4ccc5ccccc5c4)c3)ccc2c1` ?
Key: -66.3% (active)

Exercise: And the next one, COc1cccc(NC(=O)c2cccc(C3CCc4c(cc(OC)c(OC)c4OC)O3)c2)c1 (centres undefined) ?
Key: 80.2% (inactive)

Exercise: And the next one, `CN1CCN(c2ccc3c(c2)nc(NNC(=O)c2cnccn2)c2cccn23)CC1` ?
Key: 3.54% (active)

Exercise: And the next one, `C(/C=C/c1ccccc1)=Nc1ccc(CCc2ccc(N=C/C=C/c3ccccc3)cc2)cc1` ?
Key: 101% (inactive)

Exercise: And the next one, `Cc1cc2oc(=O)cc(CP(=O)(O)O)c2cc1O` ?
Key: 104% (inactive)

Exercise: And the next one, `COc1cc(/C=N/Nc2ccccc2F)cc(OC)c1OC` ?
Key: 109% (inactive)

----------
System: NCI-H460 lung
ASSAY METHOD TEXT: NCI-60 one-dose screen, 48 h (100 = growth as untreated, 0 = no growth, -100 = all killed)
SETUP CONDITIONS: 10 µM unless noted
Compounds without any hit were thinned out: in the full panel of roughly 83,000, 20% have a hit.
EXPERIMENTAL READOUT: growth (%)
Number in %, nothing else.

The following molecules have reported results that may help.
>  <MOLECULE>
COc1ccc(/C=C/C(=O)c2ccc(Nc3nc(Nc4ccc(F)cc4)nc(Nc4ccc(Cl)cc4)n3)cc2)cc1

>  <TARGET DESC>
NCI-H460 lung

>  <growth (%)>
94.2

$$$$
>  <MOLECULE>
O=C(N=Nc1c(O)[nH]c2ccccc12)Nc1ccc(Cl)cc1

>  <TARGET DESC>
NCI-H460 lung

>  <growth (%)>
91.3

$$$$
>  <MOLECULE>
COc1ccc(-c2cn(-c3ccc(Cl)cc3)c(SCC(=O)c3ccc([N+](=O)[O-])cc3)n2)cc1

>  <TARGET DESC>
NCI-H460 lung

>  <growth (%)>
91.5

$$$$
>  <MOLECULE>
CCOC(=O)c1c(C)nc2ccccc2c1/C=C/c1ccc(OC)cc1

>  <TARGET DESC>
NCI-H460 lung

>  <growth (%)>
78.1

$$$$
>  <MOLECULE>
O=C1Nc2ccccc2/C1=C/c1cn(C[C@@H](O)Cn2c3ccccc3c(=O)c3ccccc32)c2ccccc12

>  <TARGET DESC>
NCI-H460 lung

>  <growth (%)>
74.3

$$$$
>  <MOLECULE>
O=C(CCl)Nc1ccc2c(Nc3cc(O)ccc3Cl)ncnc2c1

>  <TARGET DESC>
NCI-H460 lung

>  <growth (%)>
-54.8

$$$$
>  <MOLECULE>
CNC(=O)c1c(NC(=O)c2ccc(C(C)(C)C)cc2)sc2c(CN(C)C)c(O)ccc12

>  <TARGET DESC>
NCI-H460 lung

>  <growth (%)>
-72.5

$$$$
>  <MOLECULE>
Cc1c2cc[nH]c(=O)c2c(C)c2c1[nH]c1ccc(OC(=O)c3ccccc3)cc12

>  <TARGET DESC>
NCI-H460 lung

>  <growth (%)>
1.23

$$$$
>  <MOLECULE>
CSCCC(NC(=O)c1ccccc1)C(=O)N/N=C1\S/C(=C/c2ccc(Cl)cc2)C(=O)N1C (stereo not given)

>  <TARGET DESC>
NCI-H460 lung

>  <growth (%)>
95.9

$$$$
>  <MOLECULE>
COC(=O)c1c2c(c(C)[n+]([O-])c1C)C(=O)C=CC2=O

>  <TARGET DESC>
NCI-H460 lung

>  <growth (%)>
2.35

$$$$

Exercise: For `O=S(=O)(c1ccccc1)N1CCCN(c2nc(-c3ccccc3)nc3nc(-c4ccccc4)oc23)CC1` , what is its reported growth?
Key: 110

Exercise: And the next one, `O=C(CSc1nnc2sc(Nc3cccc(Cl)c3)nn12)c1ccc(F)cc1` ?
Key: 95.8

Exercise: And the next one, `O=C(CBr)CN1C(=O)c2ccccc2C1=O` ?
Key: 108

Exercise: And the next one, `COc1ccc(C(C)=O)cc1S(N)(=O)=O` ?
Key: 104

Exercise: And the next one, `COc1ccc(/C(C)=C(\c2ccc(Cl)cc2)c2ccc(OCCN3CCCC3)cc2)cc1` ?
Key: 2.86

Exercise: And the next one, `Cc1cc2oc(=O)cc(CP(=O)(O)O)c2cc1O` ?
Key: 103

Exercise: And the next one, `CCCCn1sc(=O)n(Cc2ccc(CNC(=O)OCc3ccc4c(Cl)cc(Cl)c(O)c4n3)cc2)c1=O` ?
Key: 26.5

Exercise: And the next one, `C=CC(=O)N1CCN(c2ccc3cccc(NC(=O)c4cnc(C)cn4)c3n2)CC1` ?
Key: 34.7

Exercise: And the next one, `CC/C=C\C/C=C/C=C1/C(=O)C=C[C@@H]1C/C=C\CCCC(=O)OC` ?
Key: 76.2

Exercise: And the next one, `Cc1ccccc1CNc1c2ccccc2nc2ccccc12` ?
Key: 6.94
